Biological target: human OPRM1 (μ, MOR) (Homo sapiens, UniProt P35372)
Construct: host or cells: CHO-K1
Sequence (P35372 whole entry): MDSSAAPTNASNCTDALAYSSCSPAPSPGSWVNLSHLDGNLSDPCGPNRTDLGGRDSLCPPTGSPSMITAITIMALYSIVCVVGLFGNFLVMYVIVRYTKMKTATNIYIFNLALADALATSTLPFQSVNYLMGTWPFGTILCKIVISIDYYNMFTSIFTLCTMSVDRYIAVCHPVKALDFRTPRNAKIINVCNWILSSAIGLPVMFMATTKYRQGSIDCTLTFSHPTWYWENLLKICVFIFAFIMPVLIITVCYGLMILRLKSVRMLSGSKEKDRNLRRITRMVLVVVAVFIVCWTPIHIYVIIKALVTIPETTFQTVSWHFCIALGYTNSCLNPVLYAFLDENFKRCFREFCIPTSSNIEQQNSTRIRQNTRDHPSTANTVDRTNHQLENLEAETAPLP
Assay: cell-based
Details: OPRM1, read-out: cAMP Emax
Structures can show the parent of a compound that is named as a salt.
Quick reference for Emax among some molecules

Answered examples (8):
CN(C)C(CNC(=O)N1CCCc2ccccc21)c1ccccc1 (stereo not drawn) [Compound 69a] :: 110%
CNC(CNC(=O)N1Cc2ccccc2C1)c1ccccc1 (stereo not drawn) [Compound 38] :: 95.9%
CN(C)C(CNC(=O)NC1CCCc2ccccc21)c1ccsc1 (stereo not drawn) [Compound 11a, hydrochloride] :: 94.3%
CN(C)C(CNC(=O)N1CCCc2ccc(F)cc21)c1ccsc1 (stereo not drawn) [Compound 8a] :: 86.9%
CN(C)[C@H](CCNC(=O)N1CC[C@H](c2ccccc2)C1)c1ccsc1 [Compound 75] :: 114%
CNC(CNC(=O)N1Cc2ccc(F)cc2C1)c1ccsc1 (stereo not drawn) [Compound 35] :: 26.4%
CN(C)C(CNC(=O)N1Cc2cccc(C#N)c2C1)c1ccsc1 (stereo not drawn) [Compound 44] :: 51.4%
Cc1ccc2c(c1)CN(C(=O)NCC(c1ccsc1)N(C)C)C2 (stereo not drawn) [Compound 12a, hydrochloride] :: 6.33%

Attention now shifts to the item below.
Q) Emax lookup needed for CN(C)C(CNC(=O)N1Cc2ccc(Cl)cc2C1)c1ccsc1 (stereo not drawn) [Compound 4a, hydrochloride] , thanks.
A) 20.7%

Entry source: patent US20220315567A1
